Tested on: three human prostate cancer cell lines
Assay: Anti-proliferative potency across three prostate cancer cell lines
Type: cell-based
Details: read-out: IC50 range in three prostate cancer cell lines
pIC50: −log10 of the molar value.
property label: pIC50

> print(dat)
                            chemical.string  endpoint.value
1  CC(C)n1c(/C=C/C(=O)/C=C/c2ccccn2)nc2ccccc21    6.92 to 7.52

----------
Test system: LNCaP cells
Experiment: WST-1 cell proliferation assay, LNCaP
Type: cell-based
Conditions: Homo sapiens, 72 h, read-out: IC50 LNCaP
pIC50: −log10 of the molar value.
property label: pIC50

> print(dat)
                                   molecule  property.label  endpoint.value
1  COc1cc(/C=C/C(=O)CC(=O)/C=C/c2ccc(O)c(OC)c2)ccc1O [Curcumin]           pIC50            4.87
